# Method Description: Intrinsic clearance in mouse liver microsomes assessed per mg protein at 1 uM measured after 60 mins in presence of NADPH-generating system by UPLC-MS analysis
# Format: ADME, Microsome
# Condition Parameters: read-out: CLH
Recorded Metric: microsomal CLint at 1 µM (µL/min/mg)
// return numeric value only (unit: µL/min/mg, not printed)

Could you tell me which microsomal CLint at 1 µM is on file for `COC1=CC(=O)N(C(=O)/C=C/[C@H](CCc2ccccc2)NC(=O)[C@H](CC(C)C)NC(=O)[C@H](CC(C)C)NC(=O)[C@H](C(C)C)N(C)C)[C@H]1Cc1c[nH]c2ccccc12.O=C(O)C(F)(F)F` ?
787
